- Tested on: HS 578T breast
- Procedure Summary: NCI tumour cell line growth inhibition, 48 h
Recorded TGI for the following compounds

Cc1cc(C)c2c(n1)S(=O)(=O)N(CCCN1CCN(c3cccc(C(F)(F)F)c3)CC1)c1c-2nn(C)c1C | > 100 µM

# query: TGI of entry COc1ccc2sc(-n3nc4ccccc4c3Nc3nc4ccc(OC)cc4s3)nc2c1
5.61 µM

# query: TGI of entry CCOC(=O)C(O)(NC(=O)c1ccccc1F)C(F)(F)F (stereo not given)
> 100 µM

# query: TGI of entry Nc1nc(-c2ccc(F)cc2)c(-c2ccc3ncccc3n2)s1
> 25 µM

# query: TGI of entry N#CCCN(CCC#N)c1ccc(/C=C2\N=C(c3ccccc3)N(NC(N)=S)C2=O)cc1
> 100 µM
